molecular target: CaCiv1 (Candida albicans); assay: Test of inhibition of the activity of CIV-CDK (CIV1); format: biochemical; settings: CaCiv1 with Cdk2, [33P]ATP, 30 min at room temperature, scintillation counting; read-out: IC50
Sequence (A0A1D8PH53 entry or part of it): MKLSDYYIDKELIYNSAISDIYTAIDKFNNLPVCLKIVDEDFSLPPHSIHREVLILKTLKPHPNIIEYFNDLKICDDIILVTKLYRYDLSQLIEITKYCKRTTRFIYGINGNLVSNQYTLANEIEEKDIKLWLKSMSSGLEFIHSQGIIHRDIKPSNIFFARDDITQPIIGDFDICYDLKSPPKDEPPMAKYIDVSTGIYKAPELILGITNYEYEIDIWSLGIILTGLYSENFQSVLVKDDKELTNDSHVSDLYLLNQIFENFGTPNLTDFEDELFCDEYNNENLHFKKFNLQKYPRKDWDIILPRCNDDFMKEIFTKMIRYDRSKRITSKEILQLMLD
Where a name gives a salt, the structure may show the parent alone.
endpoint.label: IC50 (µM)
The answer is to be given in µM; state only the numeric part.

Below: 5 molecules and their reported IC50.
N[C@H]1CC[C@H](Nc2nc(Nc3ccc(Cl)c(Cl)c3)c3nc[nH]c3n2)CC1 [Example 16] :: 2.9
CCN(CC)CCOC(=O)c1ccc(Nc2nc(N[C@H]3CC[C@H](N)CC3)nc3[nH]cnc23)cc1 [Example 18] :: 4.3
CCOC(=O)c1cccc(Nc2nc(N[C@H]3CC[C@H](N)CC3)nc3[nH]cnc23)c1 [Example 14] :: 2
CCCCOC(=O)c1ccc(Nc2nc(N[C@H]3CC[C@H](N)CC3)nc3[nH]cnc23)cc1 [Example 17] :: 5.6
N[C@H]1CC[C@H](Nc2nc(Nc3ccc(C(=O)Nc4ccccc4)cc3)c3nc[nH]c3n2)CC1 [Example 19] :: 3.8

We now examine a further molecule.
Query: IC50; subject: N[C@H]1CC[C@H](Nc2nc(Nc3ccccc3)c3nc[nH]c3n2)CC1 [Example 11, dihydrochloride]
2.5

###

molecular target: CaCiv1 (Candida albicans); experiment: Test of inhibition of the activity of CIV-CDK (CIV1); type: biochemical
Counter-ions that a name gives are not always drawn.
endpoint.label: pIC50
Just so you know, pIC50 here is -log10 of the concentration in molar units; reply with that number alone.

Value wanted: pIC50 (CaCiv1 (Candida albicans)) of entry CCOC(=O)c1ccc(Nc2[nH]c(N[C@H]3CC[C@H](N)CC3)nc3ncnc2-3)cc1 [Example 1, dihydrochloride]
6.30
